Quick reference: IC50 of the listed items.
# Test system: MIA PaCa-2 cells
# assay_overview: Gemcitabine Combination Cell Assay (Cell Titer Glo)
# Type: cell-based
# measurement_context: Homo sapiens, MIA PaCa-2, 72 h, read-out: Chk1 IC50 (nM)
Counter-ions that a name gives are not always drawn.
Enter your answer as a number in nM; do not include the unit.

Consider the following illustrative entries.
molecule	target_under_test	meas_value
CCN1CC[C@@H](OCc2ccc(-c3cc(Nc4cnc(C#N)cn4)n[nH]3)c(OC)c2)C1 [Example 140, hydrochloride]	MIA PaCa-2 cells	618
COc1cc(NCC2CCN(C)CC2)ccc1-c1cc(Nc2cnc(C#N)cn2)n[nH]1 [Example 107, hydrochloride]	MIA PaCa-2 cells	160

Turning now to a further record.
Input line: Looking for the measured IC50 of CCN1CCC(Cc2ccc(-c3cc(Nc4cnc(C#N)cn4)n[nH]3)c(OC)c2)CC1 [Example 143, hydrochloride] , can you help?
Output line: 820

----------
# System: MIA PaCa-2 cells
# assay_overview: Gemcitabine Combination Cell Assay (Cell Titer Glo)
# Format: cell-based
# measurement_context: Homo sapiens, MIA PaCa-2, 72 h, read-out: Chk1 IC50 (nM)
Where a name gives a salt, the structure may show the parent alone.
Quick reference: IC50 of the listed items.
Enter your answer as a number in nM; do not include the unit.

Input line: GET /values?readout=IC50&system=MIA PaCa-2 cells&item= COc1cc(C2CCN(C(=O)CN(C)C)CC2)ccc1-c1cc(Nc2cnc(C#N)cn2)n[nH]1 [Example 17, hydrochloride]
Output line: 1820

----------
Quick reference: pIC50 of the listed items.
# target_under_test: Chk-1 kinase (Homo sapiens (Human))
# Sequence (O14757 whole entry): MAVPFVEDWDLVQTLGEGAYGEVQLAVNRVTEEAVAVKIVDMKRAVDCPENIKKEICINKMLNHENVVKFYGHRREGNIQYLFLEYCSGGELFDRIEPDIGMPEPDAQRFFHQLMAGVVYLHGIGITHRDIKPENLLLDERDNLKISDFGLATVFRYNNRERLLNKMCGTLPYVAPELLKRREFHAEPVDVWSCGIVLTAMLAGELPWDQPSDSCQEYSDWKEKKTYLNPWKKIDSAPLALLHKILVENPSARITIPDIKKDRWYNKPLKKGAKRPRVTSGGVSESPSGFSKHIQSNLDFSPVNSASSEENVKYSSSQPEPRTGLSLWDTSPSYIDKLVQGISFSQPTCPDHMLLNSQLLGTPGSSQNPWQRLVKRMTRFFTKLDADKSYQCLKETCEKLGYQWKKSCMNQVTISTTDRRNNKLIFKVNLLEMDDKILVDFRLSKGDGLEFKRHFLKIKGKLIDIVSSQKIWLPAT
# assay_overview: Chk-1 Kinase Inhibiting Activity (33P-ATP filter assay, CHKtide substrate)
# Format: biochemical
# measurement_context: against Chk-1 kinase; read-out: IC50
Structures can show the parent of a compound that is named as a salt.
pIC50 here is simply -log10 of the concentration when that concentration is written in mol/L.

molecule	pIC50
COc1cc(CNC2CCOCC2)ccc1-c1cc(Nc2cnc(C#N)cn2)n[nH]1 [Example 14, hydrochloride]	10.59
COc1cc(NC2CCN(C(C)C)CC2)ccc1-c1cc(Nc2cnc(C#N)cn2)n[nH]1 [Example 112]	11.38
COc1cc(CN[C@H](C)c2ccc(F)cc2)ccc1-c1cc(Nc2cnc(C#N)cn2)n[nH]1 [Example 7]	10.00
N#Cc1cnc(Nc2cc(-c3ccc(C4CCNCC4)cc3F)[nH]n2)cn1 [Example 51]	8.20
COc1cc(O[C@H]2CCNC2)ccc1-c1cc(Nc2cnc(C#N)cn2)n[nH]1 [Example 33]	10.13
COc1cc(C2(F)CCN(C(C)C)CC2)ccc1-c1cc(Nc2cnc(C#N)cn2)n[nH]1 [Example 86]	9.92

Input line: Looking for the measured pIC50 of COc1cc(OCC2CCN(C)CC2)ccc1-c1cc(Nc2cnc(C#N)cn2)n[nH]1 [Example 29] , can you help?
Output line: 10.17

----------
Quick reference: 2xLS of the listed items.
# Tested on: MIA PaCa-2 cells
# assay_overview: Gemcitabine Combination Cell Assay (Cell Titer Glo)
# Assay type: cell-based
# measurement_context: approximate concentration of Chk1 inhibitor that results in a two-fold reduction in the IC50 of gemcitabine alone, MIA PaCa-2 cells, 72 h

Consider the following illustrative entries.
molecule	2xLS
COc1cc(C2CCCN(C)C2)ccc1-c1cc(Nc2cnc(C#N)cn2)n[nH]1 (stereo not shown)	<3 nM
COc1cc(C2(F)CNC2)ccc1-c1cc(Nc2cnc(C#N)cn2)n[nH]1	<3 nM
COc1cc(CN(C)CCN2CCOCC2)ccc1-c1cc(Nc2cnc(C#N)cn2)n[nH]1	~5 nM

Turning now to a further record.
Input line: Looking for the measured 2xLS of "CCN1CCN(c2ccc(-c3cc(Nc4cnc(C#N)cn4)n[nH]3)c(OC)c2)C[C@H]1C" , can you help?
Output line: <3 nM

// data source = patent US10010547B2
